test system: Nucleic Acid; experiment: Induction of DNA cleavage activity in Escherichia coli pBR322 assessed as relaxed circular form after 10 mins by gel electrophoresis in presence of UV light; type: nucleic-acid assay; design: concentration or dose not given beside the values
OBSERVED_PROPERTY: Activity (%)
Give just the numeric value; % need not be written.

Solved cases (5 shown):
> print(dat)
                                   compound   test.target  unit.of.measurement  experimental.result
1  O=C(ON(C(=O)c1ccc(F)cc1)c1ccc(C(=O)c2ccccc2)cc1)c1ccccc1  Nucleic Acid                    %                 40.8
2  O=C(ON(C(=O)c1ccccc1)c1ccc(C(=O)c2ccccc2)cc1)c1ccc([N+](=O)[O-])cc1  Nucleic Acid                    %                 43.4
3  O=C(ON(C(=O)c1ccccc1)c1ccc(C(=O)c2ccccc2)cc1)c1ccc(F)cc1  Nucleic Acid                    %                 62.9
4  COc1ccc(C(=O)N(OC(=O)c2ccccc2)c2ccc(C(=O)c3ccccc3)cc2)cc1OC  Nucleic Acid                    %                 77.1
5  O=C(ON(C(=O)c1ccc([N+](=O)[O-])cc1)c1ccc(C(=O)c2ccccc2)cc1)c1ccccc1  Nucleic Acid                    %                 36.3

Now for a further molecule.
Ask: Tell me Activity reported for O=C(ON(C(=O)c1ccccc1)c1ccc(C(=O)c2ccccc2)cc1)c1ccc(Cl)cc1
Reply: 35
